# tested-on: UniProt P25025
# Sequence (P25025 whole entry): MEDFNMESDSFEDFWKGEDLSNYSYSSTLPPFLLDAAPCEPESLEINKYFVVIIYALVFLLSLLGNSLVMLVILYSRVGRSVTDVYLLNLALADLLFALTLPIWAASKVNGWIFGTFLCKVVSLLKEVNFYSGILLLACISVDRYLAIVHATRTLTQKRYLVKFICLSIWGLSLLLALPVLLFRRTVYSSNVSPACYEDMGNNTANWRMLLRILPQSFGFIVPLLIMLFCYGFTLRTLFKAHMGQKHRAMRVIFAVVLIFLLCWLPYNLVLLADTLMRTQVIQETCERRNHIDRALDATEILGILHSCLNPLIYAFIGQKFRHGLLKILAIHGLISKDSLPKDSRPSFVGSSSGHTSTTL
# protocol: Inhibition of CXCR2 (unknown origin) expressed in HEK293T cells cotransfected with GFP-p22F assessed as reduction in IL-8-induced cAMP incubated for 10 mins followed by IL-8 stimulation and measured after 10 mins by luminescence based assay
# Type: functional, cell-based
measurement-name: IC50 (µM)
Field: numeric (µM). Do not append units.

Return reported IC50; argument: "CSc1nnc2n(-c3ccccc3)c(=O)c3c4c(sc3n12)CCC[C@H]4C" 7.79
